- targetUnderTest: IKZF3-GFP (Homo sapiens, UniProt Q96SW2+Q9UKT9)
- Construct: expressed in transfected cells; host or cells: HEK293A (Invitrogen R70507), lentiviral transduction with pLenti6-IKZF3-GFP-Ires-RFP, blasticidin selection
- Sequence (Q9UKT9 whole entry): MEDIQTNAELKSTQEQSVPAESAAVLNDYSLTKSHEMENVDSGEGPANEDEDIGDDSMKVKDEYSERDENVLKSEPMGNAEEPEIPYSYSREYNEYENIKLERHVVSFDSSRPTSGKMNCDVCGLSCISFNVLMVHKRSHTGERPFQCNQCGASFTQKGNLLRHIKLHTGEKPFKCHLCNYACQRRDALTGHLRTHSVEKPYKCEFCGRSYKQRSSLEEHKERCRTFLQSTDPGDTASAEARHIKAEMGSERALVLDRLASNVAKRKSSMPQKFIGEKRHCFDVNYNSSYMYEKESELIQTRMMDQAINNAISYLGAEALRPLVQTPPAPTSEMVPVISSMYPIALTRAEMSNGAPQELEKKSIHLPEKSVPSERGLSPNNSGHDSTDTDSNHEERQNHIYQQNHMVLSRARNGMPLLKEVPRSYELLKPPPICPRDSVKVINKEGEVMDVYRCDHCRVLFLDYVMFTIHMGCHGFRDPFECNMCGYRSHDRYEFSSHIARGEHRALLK
- Sequence (Q96SW2 whole entry): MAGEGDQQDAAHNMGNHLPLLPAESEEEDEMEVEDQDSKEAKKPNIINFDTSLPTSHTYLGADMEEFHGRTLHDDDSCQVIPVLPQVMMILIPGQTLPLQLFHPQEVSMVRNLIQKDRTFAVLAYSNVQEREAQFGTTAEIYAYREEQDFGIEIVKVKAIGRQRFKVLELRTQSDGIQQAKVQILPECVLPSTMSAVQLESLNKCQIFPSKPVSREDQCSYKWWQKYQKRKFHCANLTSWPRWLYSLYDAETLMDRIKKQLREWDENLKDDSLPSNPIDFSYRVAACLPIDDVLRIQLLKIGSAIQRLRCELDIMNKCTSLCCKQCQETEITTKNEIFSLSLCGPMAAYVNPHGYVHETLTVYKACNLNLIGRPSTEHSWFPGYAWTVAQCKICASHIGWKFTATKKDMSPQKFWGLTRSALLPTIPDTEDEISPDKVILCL
- Sequence (Q16531 whole entry partner): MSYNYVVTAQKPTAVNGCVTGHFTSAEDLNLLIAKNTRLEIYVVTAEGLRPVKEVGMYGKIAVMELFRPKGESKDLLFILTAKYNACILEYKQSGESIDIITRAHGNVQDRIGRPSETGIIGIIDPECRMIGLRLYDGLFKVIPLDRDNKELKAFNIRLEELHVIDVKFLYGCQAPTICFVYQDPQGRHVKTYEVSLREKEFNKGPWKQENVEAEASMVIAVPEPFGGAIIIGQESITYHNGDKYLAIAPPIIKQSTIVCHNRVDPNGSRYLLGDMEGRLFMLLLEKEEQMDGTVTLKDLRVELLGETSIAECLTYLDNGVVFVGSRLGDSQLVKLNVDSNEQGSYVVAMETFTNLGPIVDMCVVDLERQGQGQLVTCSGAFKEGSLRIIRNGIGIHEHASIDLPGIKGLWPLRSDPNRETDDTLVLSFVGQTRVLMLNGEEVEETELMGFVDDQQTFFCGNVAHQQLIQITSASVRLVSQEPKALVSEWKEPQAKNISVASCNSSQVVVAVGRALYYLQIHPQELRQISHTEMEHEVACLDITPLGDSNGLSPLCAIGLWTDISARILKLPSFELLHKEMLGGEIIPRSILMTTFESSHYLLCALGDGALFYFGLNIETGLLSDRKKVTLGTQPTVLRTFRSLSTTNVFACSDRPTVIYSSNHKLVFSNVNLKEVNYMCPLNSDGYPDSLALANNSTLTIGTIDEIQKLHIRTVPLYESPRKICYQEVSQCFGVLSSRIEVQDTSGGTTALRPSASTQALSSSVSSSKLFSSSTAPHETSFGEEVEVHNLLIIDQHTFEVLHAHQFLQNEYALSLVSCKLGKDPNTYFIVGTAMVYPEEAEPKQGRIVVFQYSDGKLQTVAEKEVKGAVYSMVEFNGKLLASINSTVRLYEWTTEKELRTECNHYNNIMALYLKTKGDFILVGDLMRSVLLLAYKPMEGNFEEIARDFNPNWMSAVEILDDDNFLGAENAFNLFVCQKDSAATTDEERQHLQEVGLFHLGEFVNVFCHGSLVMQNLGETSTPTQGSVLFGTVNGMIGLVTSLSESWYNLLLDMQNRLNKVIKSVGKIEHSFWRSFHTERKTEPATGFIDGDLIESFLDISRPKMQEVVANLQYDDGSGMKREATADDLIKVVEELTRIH
- method: IKZF3-GFP protein abundance flow cytometry assay in HEK293A cells
- Type: cell-based
- particulars: HEK293A IKZF3-GFP-iresRFP cells, 24 h; % protein remaining at maximum degradation
endpoint: IKZF3 deg Amax (%)

cpdSmiles: Cc1ccc(C(=O)N(C)CCCCCNCc2ccc(-c3cc4c(-c5cc(F)cc(NC(=O)c6ccc(C(C)(C)O)cc6F)c5C)ncnc4[nH]3)cc2)cc1N1CCC(=O)NC1=O
IKZF3 deg Amax / %: 101.1

cpdSmiles: COc1ccc(C(=O)N2CCC(CN3CCC(Oc4ccc(-c5cc6c(-c7cc(F)cc(NC(=O)c8ccc(C(C)(C)O)cc8F)c7C)ncnc6[nH]5)cc4)CC3)CC2)cc1N1CCC(=O)NC1=O
IKZF3 deg Amax / %: 100.5

cpdSmiles: Cc1c(NC(=O)c2ccc(C(C)(C)O)cc2F)cc(F)cc1-c1ncnc2[nH]c(-c3ccc(CCN4CCC5(CC4)CCN(C(=O)c4ccc(F)c(N6CCC(=O)NC6=O)c4)CC5)cc3)cc12
IKZF3 deg Amax / %: 99.7

cpdSmiles: Cc1c(NC(=O)c2ccc(C(C)(C)O)cc2F)cc(F)cc1-c1ncnc2[nH]c(-c3ccc(CCN4CCC5(CC4)CCN(C(=O)c4cccc(N6CCC(=O)NC6=O)c4)CC5)cc3)cc12
IKZF3 deg Amax / %: 100.4

cpdSmiles: CCOc1ccc(C(=O)N2CCC3(CCN(Cc4ccc(-c5cc6c(-c7cc(F)cc(NC(=O)c8ccc(C(C)(C)O)cc8F)c7C)ncnc6[nH]5)cc4)CC3)CC2)cc1N1CCC(=O)NC1=O
IKZF3 deg Amax / %: 101.3

* * *

- targetUnderTest: BTK-GFP (Homo sapiens, UniProt Q06187+Q96SW2)
- Construct: expressed in transfected cells; host or cells: HEK293A (Invitrogen R70507), lentiviral transduction with pLenti6-BTK-GFP-Ires-RFP, blasticidin selection
- Sequence (Q06187 whole entry): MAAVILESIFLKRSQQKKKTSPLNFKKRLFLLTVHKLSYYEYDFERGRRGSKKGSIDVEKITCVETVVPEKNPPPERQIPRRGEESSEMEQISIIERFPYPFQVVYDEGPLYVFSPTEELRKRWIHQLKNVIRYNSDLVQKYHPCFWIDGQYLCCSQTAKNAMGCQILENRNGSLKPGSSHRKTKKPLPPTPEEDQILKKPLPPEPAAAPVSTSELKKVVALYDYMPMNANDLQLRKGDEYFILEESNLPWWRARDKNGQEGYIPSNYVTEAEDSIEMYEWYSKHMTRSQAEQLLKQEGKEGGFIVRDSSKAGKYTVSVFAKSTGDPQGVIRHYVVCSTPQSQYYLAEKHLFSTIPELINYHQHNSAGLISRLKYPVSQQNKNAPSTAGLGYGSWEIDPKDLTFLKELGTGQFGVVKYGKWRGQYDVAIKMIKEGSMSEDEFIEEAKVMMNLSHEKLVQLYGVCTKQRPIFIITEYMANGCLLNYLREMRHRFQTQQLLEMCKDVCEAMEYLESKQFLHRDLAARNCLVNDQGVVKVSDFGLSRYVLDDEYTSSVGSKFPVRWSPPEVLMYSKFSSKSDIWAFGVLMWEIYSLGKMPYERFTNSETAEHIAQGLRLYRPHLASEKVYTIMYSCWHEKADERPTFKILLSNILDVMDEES
- Sequence (Q96SW2 whole entry): as the sequence (Q96SW2 whole entry) above
- Sequence (Q16531 whole entry partner): as the sequence (Q16531 whole entry partner) above
- method: BTK-GFP protein abundance flow cytometry assay in HEK293A cells
- Format: cell-based
- particulars: HEK293A BTK-GFP-iresRFP cells, 24 h, GFP signal by flow cytometry; concentration at which 50% maximal degradation was observed
endpoint: DC50 (µM)

compound: COc1ccc(C(=O)N2CCC3(CCN(Cc4ccc(-c5cc6c(-c7cc(F)cc(NC(=O)c8ccc(C(C)(C)O)cc8F)c7C)ncnc6[nH]5)cc4)C3)CC2)cc1N1CCC(=O)NC1=O
targetUnderTest: BTK-GFP (Homo sapiens, UniProt Q06187+Q96SW2)
DC50 (µM): 0.0703

compound: COc1ccc(C(=O)N2CCC(O[C@H]3CC[C@@H](OCc4ccc(-c5cc6c(-c7cc(F)cc(NC(=O)c8ccc(C(C)(C)O)cc8F)c7C)ncnc6[nH]5)cc4)CC3)CC2)cc1N1CCC(=O)NC1=O
targetUnderTest: BTK-GFP (Homo sapiens, UniProt Q06187+Q96SW2)
DC50 (µM): 0.0124

compound: COc1ccc(C(=O)N2CCC3(CCN(Cc4ccc(-c5cc6c(-c7cc(F)cc(NC(=O)c8ccc(C(C)(C)O)cc8F)c7C)ncnc6[nH]5)cc4)C[C@@H]3CO)CC2)cc1N1CCC(=O)NC1=O (single isomer, unassigned)
targetUnderTest: BTK-GFP (Homo sapiens, UniProt Q06187+Q96SW2)
DC50 (µM): 0.0771

(P) Cc1ccc(C(=O)N2CCC3(CCN(CCc4ccc(-c5cc6c(-c7cc(F)cc(NC(=O)c8ccc(C(C)(C)O)cc8F)c7C)ncnc6[nH]5)cc4)CC3)CC2)cc1N1CCC(=O)NC1=O
(Q) COc1ccc(C(=O)N2CCC(OC(CO)CN3CCC(Oc4ccc(-c5cc6c(-c7cc(F)cc(NC(=O)c8ccc(C(C)(C)O)cc8F)c7C)ncnc6[nH]5)cc4)CC3)CC2)cc1N1CCC(=O)NC1=O (racemic)
Between P and Q , which one has the lower reported DC50 value? Respond using the label that marks the chosen record.
P
(P: 0.001 µM, Q: 0.0108 µM)

(1) Cc1cc(F)c(C(=O)NCCCCCNCc2ccc(-c3cc4c(-c5cc(F)cc(NC(=O)c6ccc(C(C)(C)O)cc6F)c5C)ncnc4[nH]3)cc2)cc1N1CCC(=O)NC1=O
(2) COc1ccc(C(=O)N2CC3(CCN(Cc4ccc(-c5cc6c(-c7cc(F)cc(NC(=O)c8ccc(C(C)(C)O)cc8F)c7C)ncnc6[nH]5)cc4)CC3)C2)cc1N1CCC(=O)NC1=O
(3) Cc1c(NC(=O)c2ccc(C(C)(C)O)cc2F)cc(F)cc1-c1ncnc2[nH]c(-c3ccc(COC4CCN(CCC5CCN(C(=O)c6ccc(F)c(N7CCC(=O)NC7=O)c6)CC5)CC4)cc3)cc12
(4) CCOc1ccc(C(=O)N2CCC3(CCN(Cc4ccc(-c5cc6c(-c7cc(F)cc(NC(=O)c8ccc(C(C)(C)O)cc8F)c7C)ncnc6[nH]5)cc4)CC3)CC2)cc1N1CCC(=O)NC1=O
Let's sort these by DC50, smallest first. Go ahead? Thanks in advance for listing the labels in the requested order.
3, 4, 1, 2

* * *

- targetUnderTest: BTK-GFP (Homo sapiens, UniProt Q06187+Q96SW2)
- Construct: expressed in transfected cells; host or cells: HEK293A (Invitrogen R70507), lentiviral transduction with pLenti6-BTK-GFP-Ires-RFP, blasticidin selection
- method: BTK-GFP protein abundance flow cytometry assay in HEK293A cells
- Assay type: cell-based
- particulars: HEK293A BTK-GFP-iresRFP cells, 24 h; % protein remaining at the concentration at which maximum degradation is seen
endpoint: BTK deg Amax (%)

cpdSmiles: Cc1ccc(C(=O)N2CCC(OC3CCN(Cc4ccc(-c5cc6c(-c7cc(F)cc(NC(=O)c8ccc(C(C)(C)O)cc8F)c7C)ncnc6[nH]5)cc4)CC3)CC2)cc1N1CCC(=O)NC1=O
endpoint: BTK deg Amax
obsValue: 4.1
--
cpdSmiles: COc1ccc(C(=O)N2CCC(O[C@H]3CC[C@@H](OCc4ccc(-c5cc6c(-c7cc(F)cc(NC(=O)c8ccc(C(C)(C)O)cc8F)c7C)ncnc6[nH]5)cc4)CC3)CC2)cc1N1CCC(=O)NC1=O
endpoint: BTK deg Amax
obsValue: 4.4
--
cpdSmiles: Cc1ccc(C(=O)N2CCC3(CCN(Cc4ccc(-c5cc6c(-c7cc(F)cc(NC(=O)c8ccc(C(C)(C)O)cc8F)c7C)ncnc6[nH]5)cc4)CC3)CC2)cc1N1CCC(=O)NC1=O
endpoint: BTK deg Amax
obsValue: 4.1

* * *

Overview of recorded GI50 for various molecules
- Test system: TMD8 cells
- method: Resazurin cell viability (proliferation) assay in TMD8 DLBCL cells
- Type: cell-based
- particulars: Homo sapiens, TMD8 cells (BTK dependent), 72 h, 50% growth inhibition vs vehicle, read-out: TMD8 Prol GI50
All answers are understood in nM, so give the number only.

Which measured GI50 value corresponds to Cc1cc(F)c(C(=O)N(C)CCCCCNCc2ccc(-c3cc4c(-c5cc(F)cc(NC(=O)c6ccc(C(C)(C)O)cc6F)c5C)ncnc4[nH]3)cc2)cc1N1CCC(=O)NC1=O [Compound 28] ?
7.16

* * *

- targetUnderTest: BTK-GFP (Homo sapiens, UniProt Q06187+Q96SW2)
- Construct: expressed in transfected cells; host or cells: HEK293A (Invitrogen R70507), lentiviral transduction with pLenti6-BTK-GFP-Ires-RFP, blasticidin selection
- method: BTK-GFP protein abundance flow cytometry assay in HEK293A cells
- Assay type: cell-based
- particulars: HEK293A BTK-GFP-iresRFP cells, 24 h; % protein remaining at the concentration at which maximum degradation is seen
endpoint: BTK deg Amax (%)

molecule: Cc1ccc(C(=O)N2CCC3(CCN(CCc4ccc(-c5cc6c(-c7cc(F)cc(NC(=O)c8ccc(C(C)(C)O)cc8F)c7C)ncnc6[nH]5)cc4)CC3)CC2)cc1N1CCC(=O)NC1=O
units: %
BTK deg Amax: 3.1

molecule: COc1ccc(C(=O)N2CCC(CN3CCN(Cc4ccc(-c5cc6c(-c7cc(F)cc(NC(=O)c8ccc(C(C)(C)O)cc8F)c7C)ncnc6[nH]5)cc4)CC3)CC2)cc1N1CCC(=O)NC1=O
units: %
BTK deg Amax: 3.3

molecule: COc1ccc(C(=O)N2CCC3(CCN(Cc4ccc(-c5cc6c(-c7cc(F)cc(NC(=O)c8ccc(C(C)(C)O)cc8F)c7C)ncnc6[nH]5)cc4)CC3)C(CO)C2)cc1N1CCC(=O)NC1=O (racemic)
units: %
BTK deg Amax: 4.2

molecule: COc1ccc(C(=O)N2CCC3(CCN(CCc4ccc(-c5cc6c(-c7cc(F)cc(NC(=O)c8ccc(C(C)(C)O)cc8F)c7C)ncnc6[nH]5)cc4)CC3)CC2)cc1N1CCC(=O)NC1=O
units: %
BTK deg Amax: 3.4

molecule: COc1ccc(C(=O)N2CCN(CCN3CCC(COc4ccc(-c5cc6c(-c7cc(F)cc(NC(=O)c8ccc(C(C)(C)O)cc8F)c7C)ncnc6[nH]5)cc4)CC3)CC2)cc1N1CCC(=O)NC1=O
units: %
BTK deg Amax: 3.9

(a) COc1ccc(C(=O)N2CCC3(CCN(Cc4ccc(-c5cc6c(-c7cc(F)cc(NC(=O)c8ccc(C(C)(C)O)cc8F)c7C)ncnc6[nH]5)cc4)CC3)[C@H](CO)C2)cc1N1CCC(=O)NC1=O (single isomer, unassigned)
(b) COc1ccc(C(=O)N2CCC3(CCN(Cc4ccc(-c5cc6c(-c7cc(F)cc(NC(=O)c8ccc(C(C)(C)O)cc8F)c7C)ncnc6[nH]5)cc4)CC3CO)CC2)cc1N1CCC(=O)NC1=O (racemic)
(c) Cc1ccc(C(=O)N2CCC(OC3CCN(CCc4ccc(-c5cc6c(-c7cc(F)cc(NC(=O)c8ccc(C(C)(C)O)cc8F)c7C)ncnc6[nH]5)cc4)CC3)CC2)cc1N1CCC(=O)NC1=O
List from greatest to least BTK deg Amax. Thanks in advance for listing the labels in the requested order.
b, a, c

(P) COc1ccc(C(=O)NCCCCN2CCN(Cc3ccc(-c4cc5c(-c6cc(F)cc(NC(=O)c7ccc(C(C)(C)O)cc7F)c6C)ncnc5[nH]4)cc3)CC2)cc1N1CCC(=O)NC1=O
(Q) COc1ccc(C(=O)NCCN2CCOC3(CCN(Cc4ccc(-c5cc6c(-c7cc(F)cc(NC(=O)c8ccc(C(C)(C)O)cc8F)c7C)ncnc6[nH]5)cc4)CC3)C2)cc1N1CCC(=O)NC1=O
(R) Cc1c(NC(=O)c2ccc(C(C)(C)O)cc2F)cc(F)cc1-c1ncnc2[nH]c(-c3ccc(CN4CCC5(CC4)CN(CCNC(=O)c4ccc(Cl)c(N6CCC(=O)NC6=O)c4)CCO5)cc3)cc12
Let's sort these by BTK deg Amax, smallest first. Go ahead? Thanks in advance for listing the labels in the requested order.
P, R, Q

(a) COc1ccc(C(=O)N2CCC3(CCN(Cc4ccc(-c5cc6c(-c7cc(F)cc(NC(=O)c8ccc(C(C)(C)O)cc8F)c7C)ncnc6[nH]5)cc4)CC3)[C@@H](CO)C2)cc1N1CCC(=O)NC1=O (single isomer, unassigned)
(b) COc1ccc(C(=O)NCCN2CCC3(CCN(Cc4ccc(-c5cc6c(-c7cc(F)cc(NC(=O)c8ccc(C(C)(C)O)cc8F)c7C)ncnc6[nH]5)cc4)CC3)C2)cc1N1CCC(=O)NC1=O
Between a and b , which one has the lower reported BTK deg Amax value? Respond using the label that marks the chosen record.
a
